B1: LINE1-full (parent)
chain: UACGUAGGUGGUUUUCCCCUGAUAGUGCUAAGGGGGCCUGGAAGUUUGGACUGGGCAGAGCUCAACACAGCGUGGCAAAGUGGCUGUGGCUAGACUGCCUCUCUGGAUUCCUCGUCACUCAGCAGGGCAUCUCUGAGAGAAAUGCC

Variants of: B1
Test: self-cleavage, relative activity (ratio to wild type); higher = more cleavage; in vitro, sequencing; the parent is a self-cleaving ribozyme
As shown below, each of these variants has a reported self-cleavage value.

Solved entries (count: 2):
var="G34A A124G" val=0
var="A22C A124G" val=1.92

Prompt: Looking for the measured self-cleavage of U100A U108G , can you help?
Completion: 0

Prompt: For the variant A22U U62C , what self-cleavage is on record?
Completion: 0.13

Prompt: Reported self-cleavage, variant G97A A142C : ____
Completion: 0.14

Prompt: Recorded self-cleavage for G35U U104C , please?
Completion: 0.8

Prompt: Name the recorded self-cleavage for A64C U119C .
Completion: 0.35
